Examples of molecules with documented Kq (quenching rate constant) follow.
target under test: Human Serum Albumin (HSA) (Homo sapiens, UniProt P02768)
Construct: HSA (≥96%) and six PFAS were all purchased from Aladdin Chemicals (Shanghai, China); purchased Aladdin Chemicals (Shanghai, China)
Sequence (P02768 25-609): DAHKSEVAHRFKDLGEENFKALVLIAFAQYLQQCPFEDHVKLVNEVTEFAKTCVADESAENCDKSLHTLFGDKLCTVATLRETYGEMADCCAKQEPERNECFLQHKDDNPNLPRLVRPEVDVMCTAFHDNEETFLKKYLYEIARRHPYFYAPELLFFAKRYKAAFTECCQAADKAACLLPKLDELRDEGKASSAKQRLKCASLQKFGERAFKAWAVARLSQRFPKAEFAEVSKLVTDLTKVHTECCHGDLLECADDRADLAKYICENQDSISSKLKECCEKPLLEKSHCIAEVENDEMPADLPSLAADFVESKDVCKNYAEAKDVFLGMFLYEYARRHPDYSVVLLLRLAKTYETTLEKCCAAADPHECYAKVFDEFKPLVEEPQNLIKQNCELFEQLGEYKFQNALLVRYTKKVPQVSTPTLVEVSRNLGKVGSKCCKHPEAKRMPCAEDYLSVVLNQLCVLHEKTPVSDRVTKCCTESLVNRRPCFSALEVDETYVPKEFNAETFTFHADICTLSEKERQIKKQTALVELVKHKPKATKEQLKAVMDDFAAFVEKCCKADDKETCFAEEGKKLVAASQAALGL
protocol details: Fluorescence quenching of HSA by PFAS (Stern–Volmer, double logarithmic and Van't Hoff analysis)
Type: binding
measurement conditions: T = 304 K; τ0 taken as 10^−8 s

| molecule | Kq (quenching rate constant) |
| --- | --- |
| O=C(O)C(F)(F)C(F)(F)C(F)(F)C(F)(F)C(F)(F)C(F)(F)C(=O)O | 0.51 ± 0.04 × 10^12 L·mol^−1·s^−1 |
| O=C(O)C(F)(F)C(F)(F)C(F)(F)C(F)(F)C(F)(F)C(F)(F)C(F)(F)C(F)(F)F | 2.35 ± 0.11 × 10^12 L·mol^−1·s^−1 |
| O=C(O)C(F)(OC(F)(F)C(F)(OC(F)(F)C(F)(F)C(F)(F)F)C(F)(F)F)C(F)(F)F (stereo not drawn) | 1.95 ± 0.13 × 10^12 L·mol^−1·s^−1 |
| O=C(O)C(F)(F)C(F)(F)C(F)(F)C(F)(F)C(F)(F)C(F)(F)C(F)(F)F | 1.46 ± 0.09 × 10^12 L·mol^−1·s^−1 |
| O=C(O)C(F)(F)OC(F)(F)C(F)(F)OC(F)(F)C(F)(F)OC(F)(F)F | 1.03 ± 0.06 × 10^12 L·mol^−1·s^−1 |
| O=C(O)C(F)(F)C(F)(F)C(F)(F)C(F)(F)C(F)(F)C(F)(F)F | 0.53 ± 0.07 × 10^12 L·mol^−1·s^−1 |
